Recorded IC25 growth inhibition by entry
- System: Dorea formicigenerans;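 also: lowest concentration where monotonic median growth AUC falls below 0.75 of drug-free control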
- EXPERIMENT DESCRIPTION: IC25 growth inhibition; higher = less potent

[[record]]
molecule = "CN[C@H](CC(C)C)C(=O)N[C@H]1C(=O)N[C@@H](CC(N)=O)C(=O)N[C@H]2C(=O)N[C@H]3C(=O)N[C@H](C(=O)N[C@H](C(=O)O)c4cc(O)cc(O)c4-c4cc3ccc4O)[C@H](O)c3ccc(c(Cl)c3)Oc3cc2cc(c3O[C@@H]2O[C@H](CO)[C@@H](O)[C@H](O)[C@H]2O[C@H]2C[C@](C)(N)[C@H](O)[C@H](C)O2)Oc2ccc(cc2Cl)[C@H]1O [Vancomycin]"
measured_quantity = "IC25 growth inhibition"
result = "< 1250 nM"


As a next step, examine the molecule that follows.
Query: // IC25 growth inhibition lookup, key: N=C(N)c1ccc(OCCCCCOc2ccc(C(=N)N)cc2)cc1 [Pentamidine Isothionate]
Response: < 1250 nM
